System: Staphylococcus aureus ATCC 21027
assay-comment: Antimicrobial activity, bacterial growth (OD620)
Assay type: cell-based
stated-conditions: Staphylococcus aureus, ATCC21027; 100 μM; read-out: inhibition of S. aureus growth

{"compound": "C=C(C)C#CC1=C[C@@H](O)[C@H](O)[C@@H](Cl)[C@@H]1O (relative stereo) [Compound 5, Acrucipentyn E]", "reading-unit": "%", "bound-type": "≤", "inhibition at 100 µM": 50}
{"compound": "C=C(C)C#CC1=C[C@@H](O)[C@@H](Cl)[C@H](O)[C@@H]1O (relative stereo) [Compound 4, Acrucipentyn D]", "reading-unit": "%", "bound-type": "≤", "inhibition at 100 µM": 50}
{"compound": "C=C(C)C#C[C@@H]1C[C@H](O)[C@H](Cl)[C@@H](O)[C@H]1O (relative stereo) [Compound 2, Acrucipentyn B]", "reading-unit": "%", "bound-type": "≤", "inhibition at 100 µM": 50}
{"compound": "C=C(C)C#C[C@@H]1C[C@@H](O)[C@@H](Cl)[C@H](O)[C@@H]1O [Compound 1, Acrucipentyn A]", "reading-unit": "%", "bound-type": "=", "inhibition at 100 µM": 60}
{"compound": "C=C(C)C#C[C@@H]1C[C@H](O)[C@H](O)[C@@H](Cl)[C@@H]1O (relative stereo) [Compound 3, Acrucipentyn C]", "reading-unit": "%", "bound-type": "=", "inhibition at 100 µM": 50}

The measured values listed here are drawn from paper PMC9147975.
